system: U2OS; experiment: Multiplex assay against U2OS; assay type: toxicity, cell-based; settings: human, 12 h, 10 µM, compound concentration 10 uM, replicate 1
Property name: Population Normal (%)
Field: numeric (%). Do not append units.

> print(dat)
                                   molecule          property.name  unit.abbreviation  quantitative.readout
1  CSc1ccccc1N1CCN(CCCCCC(=O)NC2CCCc3ccccc32)CC1.Cl (stereo not drawn)  Population Normal (%)                  %                    91
2  Oc1c(CN2CCN(c3ccccn3)CC2)cc(Cl)c2cccnc12  Population Normal (%)                  %                    97
3  O=C(NCC(=O)N1CC[C@H](N[C@H]2CC[C@@](O)(c3ccc(-c4ncccn4)cn3)CC2)C1)c1cccc(C(F)(F)F)c1 [PF-4136309]  Population Normal (%)                  %                    95
4  c1cc(OCCCN2CCCCC2)ccc1CN1CCCCC1 [JNJ-5207852]  Population Normal (%)                  %                    97
5  CC(=O)NCCc1c(Cc2ccccc2)[nH]c2ccccc12 [LUZINDOLE]  Population Normal (%)                  %                    97

**Q:** Given CCCn1c(=O)c2[nH]c(C3CCCC3)nc2n(CCC)c1=O , report its Population Normal (%) on U2OS.
**A:** 97

**Q:** Given Cc1ccc(F)cc1C(=O)Nc1ccc(C(=O)N2Cc3cccn3Cc3ccccc32)c(Cl)c1 [LIXIVAPTAN] , report its Population Normal (%) on U2OS.
**A:** 94

**Q:** Given N#Cc1c(N)nc(SCc2csc(-c3ccc(Cl)cc3)n2)c(C#N)c1-c1ccc(OCCO)cc1 [CAPADENOSON] , report its Population Normal (%) on U2OS.
**A:** 94

###

system: U2OS; experiment: Multiplex assay against U2OS; type: toxicity, cell-based; details: human, 24 h, 1 µM, compound concentration 1 uM, replicate 1
Catalogue of Population Hoechst High Intensity Objects (%) values
Field: numeric (%). Do not append units.

Answered cases to consult:
> print(dat)
                                   compound  unit.abbreviation  quantitative.readout
1  C[C@H]1[C@H]2CC[C@H]3[C@@H]4CC=C5C[C@@H](N(C)C)CC[C@]5(C)[C@H]4CC[C@]23CN1C                  %                     2
2  O=C(O)c1cc2ccccc2c(Cc2c(O)c(C(=O)O)cc3ccccc23)c1O                  %                     1
3  N[C@@]1(C(=O)O)CO[C@H]2[C@H](C(=O)O)[C@H]21                  %                     1

--- query ---
**Q:** Given Cc1nc2ccc(Oc3ccc(F)cc3)cc2c(=O)n1C[C@H]1CCCN(C(C)C)C1.Cl , report its Population Hoechst High Intensity Objects (%) on U2OS.
**A:** 4

###

system: HEK-293T; assay: Multiplex assay against HEK293T; type: toxicity, cell-based; conditions: human, 24 h, 1 µM, compound concentration 1 uM, replicate 2
Catalogue of Total Cell Count values
Number only, please.

**Q:** Given the molecule N#Cc1c(N)nc(SCc2csc(-c3ccc(Cl)cc3)n2)c(C#N)c1-c1ccc(OCCO)cc1 , write its reported Total Cell Count.
**A:** 456

**Q:** Given the molecule O=C(O)Cc1ccccc1Nc1c(Cl)cccc1Cl , write its reported Total Cell Count.
**A:** 418
